molecular target: FGFR1 (Homo sapiens, UniProt P11362); conditions: relative IC50: reported IC50 toward FGFR1 divided by next lowest reported IC50 to any gene target
Sequence (P11362 22-822, species assumed): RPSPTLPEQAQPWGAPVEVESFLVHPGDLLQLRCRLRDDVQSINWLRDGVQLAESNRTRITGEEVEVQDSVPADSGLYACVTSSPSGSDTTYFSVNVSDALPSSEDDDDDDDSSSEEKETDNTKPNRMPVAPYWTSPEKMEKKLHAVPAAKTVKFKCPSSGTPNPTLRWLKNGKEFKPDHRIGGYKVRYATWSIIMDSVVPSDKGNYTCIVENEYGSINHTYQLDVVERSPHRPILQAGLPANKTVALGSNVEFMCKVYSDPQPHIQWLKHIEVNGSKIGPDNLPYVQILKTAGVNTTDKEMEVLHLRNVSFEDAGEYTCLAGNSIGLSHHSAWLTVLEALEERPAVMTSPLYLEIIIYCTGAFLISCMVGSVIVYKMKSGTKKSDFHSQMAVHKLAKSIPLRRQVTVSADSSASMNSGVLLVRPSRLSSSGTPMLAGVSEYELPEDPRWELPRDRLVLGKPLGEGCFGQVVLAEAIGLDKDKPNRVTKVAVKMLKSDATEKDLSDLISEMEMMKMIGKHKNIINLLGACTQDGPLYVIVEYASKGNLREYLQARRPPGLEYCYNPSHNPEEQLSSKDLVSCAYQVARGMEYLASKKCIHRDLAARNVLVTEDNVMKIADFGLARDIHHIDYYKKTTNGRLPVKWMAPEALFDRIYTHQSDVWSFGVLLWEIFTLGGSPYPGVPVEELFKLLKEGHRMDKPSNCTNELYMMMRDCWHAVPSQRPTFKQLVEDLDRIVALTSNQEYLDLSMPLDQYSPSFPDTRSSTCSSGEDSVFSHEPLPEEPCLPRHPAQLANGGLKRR

- COMPOUND: "NC(=O)c1c(OCc2c(F)cc(Br)cc2F)nsc1NC(=O)NCCCCN1CCCC1 [compound 9811611]"
  ASSAY SYSTEM: "FGFR1 (Homo sapiens, UniProt P11362)"
  FGFR1, rIC50: 6.7
- COMPOUND: "Fc1ccc2c(-c3nc4cc(N5CCC(N6CCCCC6)CC5)ccc4[nH]3)n[nH]c2c1 [compound 135458467]"
  ASSAY SYSTEM: "FGFR1 (Homo sapiens, UniProt P11362)"
  FGFR1, rIC50: 2.0
- COMPOUND: "COc1ccc(N2Cc3cnc(Nc4ccccc4)nc3N([C@@H]3CC[C@@H](O)C3)C2=O)cc1 [compound 9910609]"
  ASSAY SYSTEM: "FGFR1 (Homo sapiens, UniProt P11362)"
  FGFR1, rIC50: 2.4
- COMPOUND: "COC(=O)Nc1ccc(-c2c(OC3CCN(C)CC3)nc3c(-c4ccc(OC)c(OC)c4)cnn3c2N)cc1 [compound 156010414]"
  ASSAY SYSTEM: "FGFR1 (Homo sapiens, UniProt P11362)"
  FGFR1, rIC50: 1.7
- COMPOUND: "CONC(=O)c1cc(Nc2ncnn3cc(-c4nnc(C(F)F)o4)c(C(C)C)c23)c(F)cc1F [compound 10073832]"
  ASSAY SYSTEM: "FGFR1 (Homo sapiens, UniProt P11362)"
  FGFR1, rIC50: 1.2
- COMPOUND: "CN(C)CCCc1cccc(Nc2ncc3c(n2)-c2ccc(Cl)cc2NC(=S)C3)c1 [compound 56945277]"
  ASSAY SYSTEM: "FGFR1 (Homo sapiens, UniProt P11362)"
  FGFR1, rIC50: 2.4
- COMPOUND: "CONC(=O)c1cc(Nc2ncnn3cc(-c4nnc(N(C)C)o4)c(C(C)C)c23)c(F)cc1F [compound 9982235, reference compound]"
  ASSAY SYSTEM: "FGFR1 (Homo sapiens, UniProt P11362)"
  FGFR1, rIC50: 1.1

* * *

biological target: VEGFR2 (Homo sapiens, UniProt P35968); details: relative IC50: reported IC50 toward VEGFR2 divided by next lowest reported IC50 to any gene target
Sequence (P35968 20-1356, species assumed): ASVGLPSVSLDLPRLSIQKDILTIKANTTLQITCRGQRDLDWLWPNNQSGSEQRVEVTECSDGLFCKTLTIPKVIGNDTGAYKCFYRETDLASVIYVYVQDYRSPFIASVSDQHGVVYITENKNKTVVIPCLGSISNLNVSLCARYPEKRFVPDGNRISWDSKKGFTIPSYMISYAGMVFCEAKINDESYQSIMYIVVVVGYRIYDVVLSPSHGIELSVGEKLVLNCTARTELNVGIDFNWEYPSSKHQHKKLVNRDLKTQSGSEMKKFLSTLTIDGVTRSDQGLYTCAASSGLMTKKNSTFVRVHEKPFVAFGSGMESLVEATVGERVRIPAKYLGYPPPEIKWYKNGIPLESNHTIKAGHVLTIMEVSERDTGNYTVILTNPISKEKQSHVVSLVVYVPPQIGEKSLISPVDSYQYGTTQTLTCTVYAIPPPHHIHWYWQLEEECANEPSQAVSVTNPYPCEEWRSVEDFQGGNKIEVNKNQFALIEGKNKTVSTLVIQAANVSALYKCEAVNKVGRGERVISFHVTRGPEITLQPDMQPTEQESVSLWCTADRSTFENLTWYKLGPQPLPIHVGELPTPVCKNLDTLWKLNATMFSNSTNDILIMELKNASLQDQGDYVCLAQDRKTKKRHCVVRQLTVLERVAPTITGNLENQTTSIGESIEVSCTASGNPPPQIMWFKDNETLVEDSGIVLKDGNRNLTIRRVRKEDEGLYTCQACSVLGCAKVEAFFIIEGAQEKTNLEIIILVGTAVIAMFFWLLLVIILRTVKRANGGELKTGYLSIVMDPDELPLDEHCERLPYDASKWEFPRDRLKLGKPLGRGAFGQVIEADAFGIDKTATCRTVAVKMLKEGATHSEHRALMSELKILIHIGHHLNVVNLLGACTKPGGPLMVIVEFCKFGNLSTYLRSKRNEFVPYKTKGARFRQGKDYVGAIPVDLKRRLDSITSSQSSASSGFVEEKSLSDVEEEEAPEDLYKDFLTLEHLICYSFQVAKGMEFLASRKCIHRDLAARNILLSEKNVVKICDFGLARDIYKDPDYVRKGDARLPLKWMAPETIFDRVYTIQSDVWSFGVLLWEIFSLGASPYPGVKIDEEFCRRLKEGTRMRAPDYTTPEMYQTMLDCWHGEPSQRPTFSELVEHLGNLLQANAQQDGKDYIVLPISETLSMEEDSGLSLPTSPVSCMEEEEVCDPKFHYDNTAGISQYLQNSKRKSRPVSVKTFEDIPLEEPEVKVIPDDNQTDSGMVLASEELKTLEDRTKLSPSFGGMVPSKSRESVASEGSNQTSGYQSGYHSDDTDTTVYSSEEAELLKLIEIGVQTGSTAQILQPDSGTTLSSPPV
Under this convention, MET denotes VEGFR2, rIC50 strictly below 1 and NOT MET denotes VEGFR2, rIC50 at or above 1.

- MOLECULE: "Cc1nnc(-c2cn3ncnc(Nc4cnc5[nH]ccc5c4)c3c2C(C)C)o1"
  CLASSIFICATION: "MET"
- MOLECULE: "COc1ccc(N2Cc3cnc(Nc4ccc(F)cc4)nc3N([C@@H]3CC[C@@H](O)C3)C2=O)cc1 [compound 11396738, reference compound]"
  CLASSIFICATION: "MET"
- MOLECULE: "Oc1cc2c(cc1O)C1c3ccc(O)c(O)c3OCC1(O)C2 (centres unmarked)"
  CLASSIFICATION: "NOT MET"
- MOLECULE: "Oc1ccc(C[C@@]2(O)COc3c(ccc(O)c3O)[C@H]2O)cc1O [compound 24949852, Epihematoxylol]"
  CLASSIFICATION: "NOT MET"
